Data provenance is patent US8853418B2.

studySystem: N-type calcium channel (Homo sapiens, UniProt Q00975)
Sequence (Q00975 whole entry): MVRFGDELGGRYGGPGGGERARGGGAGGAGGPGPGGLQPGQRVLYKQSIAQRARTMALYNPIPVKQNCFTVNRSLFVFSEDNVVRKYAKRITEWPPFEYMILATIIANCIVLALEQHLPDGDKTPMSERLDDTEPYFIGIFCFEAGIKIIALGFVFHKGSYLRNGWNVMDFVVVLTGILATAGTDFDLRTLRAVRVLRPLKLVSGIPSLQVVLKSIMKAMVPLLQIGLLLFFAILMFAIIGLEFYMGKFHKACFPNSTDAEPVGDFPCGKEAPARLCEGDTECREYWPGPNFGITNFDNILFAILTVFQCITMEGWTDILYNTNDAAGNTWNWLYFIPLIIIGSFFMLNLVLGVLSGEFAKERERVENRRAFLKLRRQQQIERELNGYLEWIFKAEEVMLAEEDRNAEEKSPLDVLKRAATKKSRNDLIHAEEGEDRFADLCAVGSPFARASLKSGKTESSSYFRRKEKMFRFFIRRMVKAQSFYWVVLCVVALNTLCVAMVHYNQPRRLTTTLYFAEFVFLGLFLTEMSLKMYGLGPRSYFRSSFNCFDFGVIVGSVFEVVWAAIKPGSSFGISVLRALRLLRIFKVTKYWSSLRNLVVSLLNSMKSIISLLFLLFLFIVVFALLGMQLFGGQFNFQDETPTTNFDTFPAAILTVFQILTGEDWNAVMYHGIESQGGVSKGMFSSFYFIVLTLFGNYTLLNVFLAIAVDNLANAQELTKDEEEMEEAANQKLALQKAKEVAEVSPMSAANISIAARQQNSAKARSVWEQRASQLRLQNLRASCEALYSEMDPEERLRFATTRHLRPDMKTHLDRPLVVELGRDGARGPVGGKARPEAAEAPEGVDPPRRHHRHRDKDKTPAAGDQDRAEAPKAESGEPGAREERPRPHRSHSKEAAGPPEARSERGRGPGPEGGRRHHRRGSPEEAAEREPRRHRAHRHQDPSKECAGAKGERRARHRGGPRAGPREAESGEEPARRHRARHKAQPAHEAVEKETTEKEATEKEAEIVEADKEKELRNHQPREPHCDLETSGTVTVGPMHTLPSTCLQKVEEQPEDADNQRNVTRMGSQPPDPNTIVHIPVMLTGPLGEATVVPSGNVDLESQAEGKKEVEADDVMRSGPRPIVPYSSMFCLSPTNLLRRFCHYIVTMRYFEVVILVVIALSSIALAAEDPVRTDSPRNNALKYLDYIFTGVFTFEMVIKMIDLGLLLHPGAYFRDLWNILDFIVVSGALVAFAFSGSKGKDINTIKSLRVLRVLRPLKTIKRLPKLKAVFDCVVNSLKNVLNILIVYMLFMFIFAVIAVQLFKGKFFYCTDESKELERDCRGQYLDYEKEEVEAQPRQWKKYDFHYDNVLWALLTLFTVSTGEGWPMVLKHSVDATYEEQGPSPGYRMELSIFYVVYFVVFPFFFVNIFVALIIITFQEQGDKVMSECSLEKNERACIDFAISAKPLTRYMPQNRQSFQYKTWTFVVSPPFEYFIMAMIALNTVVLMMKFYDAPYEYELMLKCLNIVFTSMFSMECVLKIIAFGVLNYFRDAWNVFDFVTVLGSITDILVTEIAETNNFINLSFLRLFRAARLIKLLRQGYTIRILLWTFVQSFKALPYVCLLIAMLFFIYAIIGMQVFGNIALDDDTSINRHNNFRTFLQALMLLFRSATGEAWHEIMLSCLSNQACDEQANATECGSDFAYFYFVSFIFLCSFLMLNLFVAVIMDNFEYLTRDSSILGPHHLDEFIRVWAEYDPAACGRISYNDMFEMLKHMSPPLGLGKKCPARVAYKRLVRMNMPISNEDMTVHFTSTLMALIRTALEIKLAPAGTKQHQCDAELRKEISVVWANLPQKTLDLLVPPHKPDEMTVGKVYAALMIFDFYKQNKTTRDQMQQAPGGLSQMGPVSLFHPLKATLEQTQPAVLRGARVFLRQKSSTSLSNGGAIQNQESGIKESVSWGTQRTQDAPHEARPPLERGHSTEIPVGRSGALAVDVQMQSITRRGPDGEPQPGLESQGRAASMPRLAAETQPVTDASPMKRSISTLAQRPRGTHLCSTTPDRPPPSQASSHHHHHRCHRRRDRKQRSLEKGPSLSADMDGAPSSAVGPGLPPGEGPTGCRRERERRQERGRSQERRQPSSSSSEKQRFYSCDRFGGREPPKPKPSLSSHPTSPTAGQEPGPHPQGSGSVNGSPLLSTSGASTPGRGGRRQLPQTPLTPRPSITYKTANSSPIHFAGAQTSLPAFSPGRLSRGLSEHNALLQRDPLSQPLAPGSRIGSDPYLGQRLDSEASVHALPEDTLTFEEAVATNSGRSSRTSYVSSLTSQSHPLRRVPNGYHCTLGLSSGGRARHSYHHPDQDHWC
Sequence (P54284 whole entry partner): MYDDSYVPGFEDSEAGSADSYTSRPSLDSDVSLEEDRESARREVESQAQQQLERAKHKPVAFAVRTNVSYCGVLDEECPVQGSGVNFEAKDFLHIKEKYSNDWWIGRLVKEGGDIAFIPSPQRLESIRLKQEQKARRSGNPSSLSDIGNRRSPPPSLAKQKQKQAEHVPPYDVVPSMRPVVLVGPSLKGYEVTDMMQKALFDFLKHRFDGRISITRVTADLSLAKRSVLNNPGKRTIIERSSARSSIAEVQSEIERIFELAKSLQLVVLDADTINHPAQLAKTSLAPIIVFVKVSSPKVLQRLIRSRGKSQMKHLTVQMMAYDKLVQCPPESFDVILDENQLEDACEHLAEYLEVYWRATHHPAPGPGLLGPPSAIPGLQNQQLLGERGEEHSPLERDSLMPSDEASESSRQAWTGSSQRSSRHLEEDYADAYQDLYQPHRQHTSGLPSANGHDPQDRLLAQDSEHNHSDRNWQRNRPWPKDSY
Sequence (P54289 25-946 partner limits assumed): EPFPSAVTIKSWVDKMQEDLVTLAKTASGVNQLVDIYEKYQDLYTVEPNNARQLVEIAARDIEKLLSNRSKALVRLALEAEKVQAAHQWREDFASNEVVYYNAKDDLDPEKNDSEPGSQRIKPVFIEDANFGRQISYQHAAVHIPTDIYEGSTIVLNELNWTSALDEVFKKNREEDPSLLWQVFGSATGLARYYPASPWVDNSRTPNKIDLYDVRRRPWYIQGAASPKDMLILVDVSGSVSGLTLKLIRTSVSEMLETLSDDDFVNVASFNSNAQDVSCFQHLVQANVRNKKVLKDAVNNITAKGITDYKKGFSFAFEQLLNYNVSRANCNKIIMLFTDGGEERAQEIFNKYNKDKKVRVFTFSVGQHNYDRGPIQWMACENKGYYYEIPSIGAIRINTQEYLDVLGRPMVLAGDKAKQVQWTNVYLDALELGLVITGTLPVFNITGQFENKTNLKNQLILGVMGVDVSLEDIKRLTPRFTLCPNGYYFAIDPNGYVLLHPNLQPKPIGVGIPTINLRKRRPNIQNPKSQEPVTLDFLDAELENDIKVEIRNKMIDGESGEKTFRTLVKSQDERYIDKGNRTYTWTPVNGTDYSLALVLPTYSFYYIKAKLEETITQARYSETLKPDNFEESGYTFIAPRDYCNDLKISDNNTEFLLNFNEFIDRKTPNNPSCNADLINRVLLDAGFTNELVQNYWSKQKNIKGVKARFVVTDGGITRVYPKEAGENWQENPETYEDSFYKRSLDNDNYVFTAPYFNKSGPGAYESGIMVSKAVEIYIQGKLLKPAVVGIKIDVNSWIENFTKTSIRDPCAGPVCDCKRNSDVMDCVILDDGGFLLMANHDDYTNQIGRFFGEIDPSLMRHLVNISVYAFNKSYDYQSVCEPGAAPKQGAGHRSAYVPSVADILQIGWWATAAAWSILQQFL
Sequence (P54289 947-1103 partner limits assumed): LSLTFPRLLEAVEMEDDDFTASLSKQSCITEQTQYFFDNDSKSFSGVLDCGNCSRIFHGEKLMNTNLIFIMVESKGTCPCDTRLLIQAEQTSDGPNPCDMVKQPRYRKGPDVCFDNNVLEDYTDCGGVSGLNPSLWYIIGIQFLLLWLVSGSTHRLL
experimentalDetails: Automated Electrophysiology Assay (QPatch-HT whole-cell patch clamp; low- and high-frequency stimulation)
Assay type: cell-based
conditionDetails: 0.1 μM; high-frequency stimulation (15th pulse); read-out: QPatch at High Frequency % Inhibition
Category | rule: reported inhibition at 0.1 µM within range, see low = under 20%, moderate = from 20% up to 40%, high = 40% and over

# example entries with known answers
molecule: COc1ccccc1-n1nc2c(c1-c1ccc(Cl)cc1)CC(NS(=O)(=O)N(C)C)C2 (stereo not shown)
category: moderate
--
molecule: COc1ccccc1-n1nc2c(c1-c1ccc(C#N)cc1)CC1(C2)OC(C)(C)C(C)(C)O1
category: moderate
--
molecule: CCOc1ccccc1-n1nc2c(c1-c1ccc(Cl)cc1)CC(N1C(=O)CCC1=O)C2 (stereo not shown)
category: high
--
molecule: COc1ccccc1-n1nc2c(c1-c1ccc(Cl)cc1)CC1(C2)O[C@@H](C)[C@H](C)O1
category: moderate

[Q] Please classify: CCOc1ccccc1-n1nc2c(c1-c1ccc(Cl)cc1)CC(n1cc([Si](C)(C)C)nn1)C2 (stereo not shown)
[A] high

[Q] Please classify: COc1ccccc1-n1nc2c(c1-c1ccc(Cl)cc1)C[C@H](OC(=O)C1CCC1)C2
[A] moderate

[Q] Please classify: COc1ccccc1-n1nc2c(c1-c1ccc(Cl)cc1)CC(N(C)S(C)(=O)=O)C2 (stereo not shown)
[A] high

[Q] Please classify: COc1ccccc1-n1nc2c(c1-c1ccc(C#N)cc1)C[C@H](n1cc(CC(C)C)nn1)C2
[A] moderate

[Q] Please classify: COc1ccccc1-n1nc2c(c1-c1ccc(Cl)cc1)CC(NS(=O)(=O)C(C)C)C2 (stereo not shown)
[A] high

[Q] Please classify: COc1ccc(-c2c3c(nn2-c2ccccc2OC)C[C@H](N(C)S(=O)(=O)N(C)C)C3)cn1
[A] low

[Q] Please classify: O=C1Cc2nn(-c3ccccc3OC(F)(F)F)c(-c3ccc(Cl)cc3)c2C1
[A] low

[Q] Please classify: COc1ccccc1-n1nc2c(c1-c1ccc(Cl)cc1)C[C@H](OC(=O)C1CCCC1)C2
[A] low

[Q] Please classify: COc1ccccc1-n1nc2c(c1-c1ccc(Cl)cc1)C[C@H](O[Si](C)(C)C)C2
[A] moderate
